SYSTEM_UNDER_TEST: PAR2 (HT-29 cells, SLIGKV activation) (Homo sapiens)
Construct: host or cells: HT-29 cells
Sequence (P55085 26-397): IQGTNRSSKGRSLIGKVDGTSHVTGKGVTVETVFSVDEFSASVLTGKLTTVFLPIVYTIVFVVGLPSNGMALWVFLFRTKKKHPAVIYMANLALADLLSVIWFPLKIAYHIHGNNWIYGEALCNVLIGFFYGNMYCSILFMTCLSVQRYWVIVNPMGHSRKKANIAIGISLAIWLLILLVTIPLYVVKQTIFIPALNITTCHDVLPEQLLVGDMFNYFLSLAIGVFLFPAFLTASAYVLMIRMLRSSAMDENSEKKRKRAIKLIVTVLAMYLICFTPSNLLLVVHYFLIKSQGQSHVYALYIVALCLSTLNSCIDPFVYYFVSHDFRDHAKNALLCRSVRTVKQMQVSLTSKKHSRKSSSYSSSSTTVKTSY
PROTOCOL_DETAILS: Ca FLIPR TETRA assay, ANTAGONIST mode, stimulation with 8 μM SLIGKV
Assay type: cell-based
ASSAY_CONDITIONS: HT-29 cells, antagonist mode, stimulation with 8 μM SLIGKV
TEST_READOUT: IC50

// worked examples, IC50 included
SMILES_RECORD	IC50
CC(C)c1cc(-c2ccccc2)nn2cc(C(=O)N3CCN(C(=O)C(C)(C)O)CC3(C)C)nc12	92 nM
Cc1cc(C(=O)N2CCN(C(=O)c3cn4nc(-c5ccc(F)c(Cl)c5)cc(C(C)(C)C)c4n3)C(C)(C)C2)[nH]n1	0.7 nM
Cc1cccc(-c2cc(C(C)(C)C)c3nc(C(=O)N4CCN(C(=O)c5nnc(C)o5)CC4(C)C)cn3n2)c1	6.3 nM

Now examine the next entry.
What does the data say about its IC50? Entry: "Cc1ccc(-c2cc(C(C)C)c3nc(C(=O)N4CCN(C(=O)C(C)(C)O)CC4(C)C)cn3n2)cc1F"
5.8 nM

* * *

SYSTEM_UNDER_TEST: PAR2 (HT-29 cells, SLIGKV activation) (Homo sapiens, UniProt P55085)
Construct: host or cells: HT-29 cells
PROTOCOL_DETAILS: Ca FLIPR TETRA assay, ANTAGONIST mode, stimulation with 8 μM SLIGKV
Format: cell-based
ASSAY_CONDITIONS: HT-29 cells, antagonist mode, stimulation with 8 μM SLIGKV
Provide the reported IC50 of each item.
Give bare numbers, in nM.

// worked examples, IC50 included
SMILES_RECORD	UNITS_SYMBOL	RESULT
C[C@@H]1C[C@H](c2cc(-c3ccc(F)cc3)nn3cc(C(=O)N4CCN(C(=O)[C@H]5C[C@](O)(C(F)(F)F)C5)CC4(C)C)nc23)C[C@H](C)O1	nM	3.5
Cc1c[nH]nc1C(=O)N1CCN(C(=O)c2cn3nc(-c4ccc(F)cc4)cc(C(C)C)c3n2)C(C)(C)C1	nM	10.3

Now examine the next entry.
What does the data say about its IC50? Entry: "Cc1cc(-c2cc(C(C)(C)C)c3nc(C(=O)N4CCN(c5c[nH]cn5)C(=O)C4(C)C)cn3n2)ccc1F"
7.6

* * *

PROTOCOL_DETAILS: In vivo rat pharmacokinetics (intravenous and oral)
ASSAY_CONDITIONS: plasma, intravenous, read-out: Vss
TEST_READOUT: Vd (L/kg)
Answers are plain numbers, in L/kg.

// worked examples, Vd included
SMILES_RECORD	TEST_READOUT	RESULT
Cc1nc(C(=O)N2CCN(C(=O)c3cn4nc(-c5ccc(Cl)cc5)cc(C(C)(C)C)c4n3)C(C)(C)C2)n[nH]1	Vd	2.05
CC(C)(C)c1cc(-c2ccc(C(F)(F)F)cc2)nn2cc(C(=O)N3CCNC(=O)C3(C)C)nc12	Vd	6.82
CC1(C)C(=O)NCCN1C(=O)c1cn2nc(-c3ccc(F)cc3)cc(C3CCOCC3)c2n1	Vd	1.8

# map each compound to its Vd
1. CC(C)(C)c1cc(-c2ccc(F)cc2)nn2cc(C(=O)N3CCNC(=O)C3(C)C)nc12
2. Cc1cc(-c2cc(C(C)C)c3nc(C(=O)N4CCNC(=O)C4(C)C)cn3n2)ccc1F

1: 3.2; 2: 1.6

* * *

SYSTEM_UNDER_TEST: PAR2 (HT-29 cells, trypsin activation) (Homo sapiens, UniProt P55085)
Construct: host or cells: HT-29 cells
PROTOCOL_DETAILS: Ca FLIPR TETRA assay, ANTAGONIST mode, stimulation with 3.1 U/mL trypsin
Type: cell-based
ASSAY_CONDITIONS: HT-29 cells, antagonist mode, stimulation with 3.1 U/mL trypsin
pIC50: −log10 of the molar value.
Mark TRUE for reported pIC50 of 9 or greater; mark FALSE for anything smaller.

Tell me whether pIC50 is at least 9 here: "Cc1ccc(-c2cc(C(C)C)c3nc(C(=O)N4CCNC(=O)C4(C)C)cn3n2)cc1F"
FALSE

* * *

Provide the reported IC50 of each item.
SYSTEM_UNDER_TEST: PAR2 (HT-29 cells, SLIGKV activation) (Homo sapiens)
Construct: host or cells: HT-29 cells
Sequence (P55085 26-397): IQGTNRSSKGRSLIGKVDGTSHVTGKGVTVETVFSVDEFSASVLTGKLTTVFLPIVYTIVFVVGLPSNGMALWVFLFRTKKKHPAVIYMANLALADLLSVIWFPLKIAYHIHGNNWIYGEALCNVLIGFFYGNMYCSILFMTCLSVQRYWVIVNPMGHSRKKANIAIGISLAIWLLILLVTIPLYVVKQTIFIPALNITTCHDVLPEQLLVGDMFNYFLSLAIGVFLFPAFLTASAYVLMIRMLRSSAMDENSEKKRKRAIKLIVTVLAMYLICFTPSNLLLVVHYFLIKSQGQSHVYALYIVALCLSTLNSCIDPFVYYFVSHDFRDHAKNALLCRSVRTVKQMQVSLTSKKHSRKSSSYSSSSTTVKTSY
PROTOCOL_DETAILS: Ca FLIPR TETRA assay, ANTAGONIST mode, stimulation with 8 μM SLIGKV
Assay type: cell-based
ASSAY_CONDITIONS: HT-29 cells, antagonist mode, stimulation with 8 μM SLIGKV
Give bare numbers, in nM.

# map each molecule to its IC50
1. CC(C)(C)c1cc(C2CCC(F)(F)CC2)nn2cc(C(=O)N3CCN(C(=O)[C@H]4C[C@H](C(=O)O)C4)CC3(C)C)nc12
2. CC(C)c1cc(-c2cccc(F)c2)nn2cc(C(=O)N3CCNC(=O)C3(C)C)nc12
3. Cc1cc(C(=O)N2CCN(C(=O)c3cn4nc(-c5ccc(Cl)c(F)c5)cc(C(C)(C)C)c4n3)C(C)(C)C2)[nH]n1
4. C=C(C)c1cc(-c2ccc(F)cc2)nn2cc(C(=O)N3CCN(C)C(=O)C3(C)C)nc12

[62.5, 20, 0.1, 90.3]

* * *

SYSTEM_UNDER_TEST: PAR2 (HT-29 cells, SLIGKV activation) (Homo sapiens)
Construct: host or cells: HT-29 cells
PROTOCOL_DETAILS: Ca FLIPR TETRA assay, ANTAGONIST mode, stimulation with 8 μM SLIGKV
Format: cell-based
ASSAY_CONDITIONS: HT-29 cells, stimulation with 8 μM SLIGKV
TEST_READOUT: pIC50
Answers are plain numbers, as −log10 of the molar value.

// worked examples, pIC50 included
COMPOUND	RESULT
Cc1noc(C2CCCCN2C(=O)c2cn3nc(-c4ccc(F)cc4)cc(C(F)(F)F)c3n2)n1 (stereo not shown)	5.85
CC(C)c1cc(-c2ccc(F)cc2)nn2cc(C(=O)N3CCN(C(=O)C4(O)CCC4)C[C@@H]3C)nc12	5.06
O=C(c1cn2nc(-c3ccc(F)cc3)cc(C(F)(F)F)c2n1)N1CCCCC1c1ccccn1 (stereo not shown)	5.89
COCCC(=O)N1CCN(C(=O)c2cn3nc(-c4ccc(F)cc4)cc(C(C)C)c3n2)C[C@@H]1C	6.92
COc1cccc(CC(=O)N2CCN(C(=O)c3cn4nc(-c5ccc(F)cc5)cc(C(C)C)c4n3)C[C@@H]2C)c1	8.52
CNC(=O)[C@@H]1CCN(C(=O)c2cn3nc(-c4ccc(F)cc4)cc(C(F)(F)F)c3n2)C[C@@H]1C	5.80

Now examine the next entry.
Quick check: pIC50 on PAR2 (HT-29 cells, SLIGKV activation) (Homo sapiens), item "Cc1cc(-c2ccc(F)cc2)nn2cc(C(=O)N3CCN(C(=O)C4(O)CCC4)[C@@H](C)C3)nc12" ?
5.14

* * *

Provide the reported IC50 of each item.
SYSTEM_UNDER_TEST: PAR2 (HT-29 cells, SLIGKV activation) (Homo sapiens, UniProt P55085)
Construct: host or cells: HT-29 cells
Sequence (P55085 26-397): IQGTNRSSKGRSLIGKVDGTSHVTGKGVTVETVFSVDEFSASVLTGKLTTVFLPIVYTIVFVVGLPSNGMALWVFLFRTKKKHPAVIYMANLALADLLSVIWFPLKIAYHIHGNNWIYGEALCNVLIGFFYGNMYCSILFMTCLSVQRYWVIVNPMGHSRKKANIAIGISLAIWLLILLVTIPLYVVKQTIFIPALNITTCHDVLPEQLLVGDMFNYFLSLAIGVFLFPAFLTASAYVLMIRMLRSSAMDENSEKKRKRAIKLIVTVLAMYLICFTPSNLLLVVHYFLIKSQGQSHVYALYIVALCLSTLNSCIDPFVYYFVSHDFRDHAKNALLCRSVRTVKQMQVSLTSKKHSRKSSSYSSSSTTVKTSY
PROTOCOL_DETAILS: Ca FLIPR TETRA assay, ANTAGONIST mode, stimulation with 8 μM SLIGKV
Format: cell-based
ASSAY_CONDITIONS: HT-29 cells, stimulation with 8 μM SLIGKV
Kindly write the number and append the unit.

COMPOUND	IC50
CC(C)c1cc(-c2ccc(F)cc2)nn2cc(C(=O)N3CCN(C(=O)C(C)(C)O)CC3(C)C)nc12	28 nM
Cc1cc(-c2ccc(F)cc2)nn2cc(C(=O)N3CCN(C(=O)OC(C)(C)C)[C@@H](C)C3)nc12	860 nM

# map each compound to its IC50
1. CC(C)c1cc(-c2ccc(F)cc2)nn2cc(C(=O)N3CCN(C(=O)CC(C)(C)O)[C@@H](C)C3)nc12
2. CC(C)c1cc(-c2ccc(F)cc2)nn2cc(C(=O)N3CCN(C(=O)C(O)c4ccccc4)[C@@H](C)C3)nc12 (stereo partly shown)

["67 nM", "0.3 nM"]

Source: patent US20190119282A1
